TESTED TARGET: T1, CD3 on primary human pan T cells (human, UniProt P07766 23-207)
T1 construct: on cells it stands in the TCR/CD3 complex; also called Pan T-cells (CD3-positive); endogenous CD3
T1 sequence (P07766 23-207 limits assumed): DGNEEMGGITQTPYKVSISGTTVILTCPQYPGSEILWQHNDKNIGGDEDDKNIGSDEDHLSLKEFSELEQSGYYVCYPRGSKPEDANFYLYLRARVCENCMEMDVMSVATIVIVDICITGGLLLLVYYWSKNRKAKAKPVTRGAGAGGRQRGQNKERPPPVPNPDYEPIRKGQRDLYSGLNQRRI
PROCEDURE TEXT: flow cytometry, pan T-cells
// reported % Binding retained on T-cells, 65° C. for each item listed
Numbers only; they are read as fraction.

CD3B2064 (scFv) scFv: QVQLVQSGAEVKKPGSSVKVSCKASGYTFTRSTMHWVKQAPGQGLEWIGYINPSSAYTNYAQKFQGRVTLTADKSTSTAYMELSSLRSEDTAVYYCASPQVHYDYNGFPYWGQGTLVTVSSGGSEGKSSGSGSESKSTGGSEIVLTQSPATLSASPGERVTLSCSASSSVSYMNWYQQKPGQSPRRWIYDSSKLASGVPARFSGSGSGRDYTLTISSLEPEDFAVYYCQQWSRNPPTFGGGTKVEIK | 0.241
CD3B2034 (scFv) scFv: QVQLVQSGAEVKKPGSSVKVSCKASGYTFTRSTMHWVKQAPGQGLEWMGYINPSSAYTNYNQKFQGRVTLTADKSTSTAYMELSSLRSEDTAVYYCASPQVHYDYNGFPYWGQGTLVTVSSGGSEGKSSGSGSESKSTGGSEIVLTQSPATLSASPGERVTLSCSASSSVSYMNWYQQKPGQSPRRWIYDSSKLASGVPARFSGSGSGRDYTLTISSLEPEDFAVYYCQQWSRNPPTFGGGTKVEIK | 0.387
CD3B2069 (scFv) scFv: QVQLVQSGAEVKKPGSSVKVSCKASGYTFTRSTMHWVRQAPGQGLEWMGYINPSSAYTNYNQKFQGRVTLTADKSTSTAYMELSSLRSEDTAVYYCASPQVHYDYNGFPYWGQGTLVTVSSGGSEGKSSGSGSESKSTGGSEIVLTQSPATLSASPGERVTLSCSASSSVSYMNWYQQKPGTAPRRWIYDSSKLASGVPARFSGSGSGRDYTLTISSLEPEDFAVYYCQQWSRNPPTFGGGTKVEIK | 0.11

Looking up CD3B2044 (scFv) scFv: QVQLVQSGAEVKKPGSSVKVSCKASGYTFTRSTMHWVRQAPGQGLEWIGYINPSSAYTNYNQKFQGRVTLTADKSTSTAYMELSSLRSEDTAVYYCASPQVHYDYNGFPYWGQGTLVTVSSGGSEGKSSGSGSESKSTGGSEIVLTQSPATLSASPGERVTLSCSASSSVSYMNWYQQKPGQSPRRWIYDSSKLASGVPARFSGSGSGRDYTLTISSLEPEDFAVYYCQQWSRNPPTFGGGTKVEIK , I see its % Binding retained on T-cells, 65° C. listed as 0.198

Looking up CD3B2043 (scFv) scFv: QVQLVQSGAEVKKPGSSVKVSCKASGYTFTRSTMHWVRQAPGQGLEWIGYINPSSAYTNYNQKFQGRVTLTADKSTSTAYMELSSLRSEDTAVYYCASPQVHYDYNGFPYWGQGTLVTVSSGGSEGKSSGSGSESKSTGGSEIVLTQSPATLSASPGERVTLSCSASSSVSYMNWYQQKPGTAPRRLIYDSSKLASGVPARFSGSGSGRDYTLTISSLEPEDFAVYYCQQWSRNPPTFGGGTKVEIK , I see its % Binding retained on T-cells, 65° C. listed as 0.0805
